B1: TRIM55 (parent)
chain: YKSFSKEQQTMDNLEKQLICPICL

Variants of: B1
Test: protein stability index of a GFP-peptide fusion (GPS, HEK-293T) (PSI 1-6); higher = more stable;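 also: lentivirally expressed fusions sorted by FACS into six bins by GFP to DsRed ratio, PSI derived from sequencing read proportions per bin multiplied by bin number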
Details: c terminus: a fixed tail appended
Provide the recorded protein stability index for the entries that follow.

protein stability index for `Q9G` is 2.39

protein stability index for `I19W` is 1.51

protein stability index for `C20D` is 2.51

protein stability index for `P21Y` is 3.21

protein stability index for `I19H` is 2.25

protein stability index for `K16M` is 2.15

protein stability index for `D12M` is 2.26

protein stability index for `L18V` is 3.42

protein stability index for `P21K` is 2.07

protein stability index for `Q9H` is 1.98

protein stability index for `Q9S` is 1.75

protein stability index for `L18T` is 2.54

protein stability index for `Y1W` is 2.17

protein stability index for `S3Q` is 2.2

protein stability index for `K2D` is 2.36

protein stability index for `C20E` is 3.21

protein stability index for `C20P` is 2.86

protein stability index for `E15R` is 2.12

protein stability index for `E15A` is 2.79

protein stability index for `E7Y` is 1.72

protein stability index for `C20V` is 1.78

protein stability index for `L24M` is 2.33

protein stability index for `N13E` is 1.87

protein stability index for `M11A` is 2.74

protein stability index for `Q8M` is 1.96

protein stability index for `F4R` is 2.66

protein stability index for `L14H` is 2.13

protein stability index for `S3W` is 2.18

protein stability index for `Q17P` is 1.68

protein stability index for `C23A` is 2.29

protein stability index for `L24E` is 2.13

protein stability index for `P21W` is 2.53

protein stability index for `K16W` is 1.88

protein stability index for `Y1L` is 2.94

protein stability index for `K16G` is 2.08

protein stability index for `Q8V` is 2.09

protein stability index for `T10R` is 2.03

protein stability index for `C23N` is 3.15

protein stability index for `I22P` is 2.7

protein stability index for `L24R` is 2.31

protein stability index for `F4D` is 2.43

protein stability index for `K6R` is 2.63

protein stability index for `S5T` is 1.92

protein stability index for `N13L` is 2.82

protein stability index for `K16S` is 1.81

protein stability index for `S5C` is 2.73
